Counter-ions that a name gives are not always drawn.
Reported z.score.t values, hPSC-SCs.
A bare number is all that is needed in reply.

Below are worked cases with known answers.
COc1ccc2c3c1O[C@H]1C[C@@H](O)C=C[C@@]31CCN(C)C2 [Galanthamine hydrobromide]; 0.8023
CC(=O)NC1CCSC1=O (racemic); 0.0116
C[C@H]1NC(=O)NC1=O; −0.9395
C[C@H](N)[C@H](O)c1ccc(O)c(O)c1; 0.1916

Okay, next one:
stdin: Identify measured z.score.t obtained with hPSC-SCs for CN1C2CC(=O)CC1C(O)C2 (centres unmarked) [6-Hydroxytropinone] .
stdout: −0.3867

###

Reported z.score.t values, hPSC-SCs.

Below are worked cases with known answers.
COc1c2c(nc3ccccc13)OC(C(C)(O)CO)C2 (stereo not drawn) [Dubinidine]; 0.6554
CN1[C@@H]2CC[C@H]1C[C@@H](O)C2 [Tropine]; −0.6133

Okay, next one:
stdin: Identify measured z.score.t obtained with hPSC-SCs for C[C@@H]1[C@H](O)[C@@H](C)/C=C/C=C/CC/C=C/C=C/C=C/C=C/C(O[C@H]2O[C@H](C)[C@@H](O)[C@H](N)[C@@H]2O)CC2O[C@](O)(CC(O)C(O)CCC(O)CC(O)CC(O)CC(=O)O[C@H]1C)CC(O)C2C(=O)O (stereo partly drawn) [Nystatine] .
stdout: 1.992

###

Reported z.score.t values, hPSC-SCs.
A bare number is all that is needed in reply.

Below are worked cases with known answers.
CC(C)(C)CC(C)(C)c1ccc(OCCOCC[N+](C)(C)Cc2ccccc2)cc1 [Benzethonium chloride]; −1.091
COc1ccc2c3c([nH]c2c1)[C@H]1C[C@H]2[C@H](C[C@@H](O)[C@H](OC)[C@H]2C(=O)O)CN1CC3.Cl [Reserpinic acid hydrochloride]; −0.4278

Okay, next one:
stdin: Identify measured z.score.t obtained with hPSC-SCs for `COc1cc2c(cc1O)[C@@H]1Cc3ccc(OC)c(O)c3CN1CC2` .
stdout: −1.209
